cAMP Emax (1.0% HSA) by entry:
tested.target: T1, human GIP receptor (human, UniProt P48546 22-466)
T1 sequence (looked up): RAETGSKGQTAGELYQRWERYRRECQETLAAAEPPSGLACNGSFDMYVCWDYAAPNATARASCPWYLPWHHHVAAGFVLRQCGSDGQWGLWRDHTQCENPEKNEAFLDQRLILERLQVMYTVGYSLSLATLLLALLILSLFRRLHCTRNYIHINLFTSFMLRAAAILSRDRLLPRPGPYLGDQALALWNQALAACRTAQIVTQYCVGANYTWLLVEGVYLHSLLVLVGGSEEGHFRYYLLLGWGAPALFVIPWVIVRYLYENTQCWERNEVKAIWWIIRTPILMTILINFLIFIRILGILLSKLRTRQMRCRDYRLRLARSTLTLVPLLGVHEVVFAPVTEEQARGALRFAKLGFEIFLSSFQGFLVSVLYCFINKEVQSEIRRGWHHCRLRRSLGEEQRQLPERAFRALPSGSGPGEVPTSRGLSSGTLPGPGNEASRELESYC
assay.protocol: cell-based or functional assay
I only need the number, in %, no unit after it.

Please review the following examples before continuing.
{"binder": "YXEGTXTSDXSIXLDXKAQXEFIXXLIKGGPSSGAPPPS (Y-Aib-EGT-αMeF(2F)-TSD-2Nal-SI-αMeL-LD-Orn-K((2-[2-(2-Amino-ethoxy)-ethoxy]-acetyl)2-CO-(CH2)12-CO2H)AQ-Aib-EFI-(D-Glu)-αMeY-LIK((2-[2-(2-Amino-ethoxy)-ethoxy]-acetyl)2-CO-(CH2)12-CO2H)GGPSSGAPPPS-NH2 …) [Example 256]", "cAMP Emax (1.0% HSA), %": 75.3}
{"binder": "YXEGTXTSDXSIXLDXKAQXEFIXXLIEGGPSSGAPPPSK (Y-Aib-EGT-αMeF(2F)-TSD-2Nal-SI-αMeL-LD-Orn-K((2-[2-(2-Amino-ethoxy)-ethoxy]-acetyl)2-CO-(CH2)12-CO2H)AQ-Aib-EFI-(D-Glu)-αMeY-LIEGGPSSGAPPPSK((2-[2-(2-Amino-ethoxy)-ethoxy]-acetyl)2-CO-(CH2)12-CO2H)-NH2) [Example 257]", "cAMP Emax (1.0% HSA), %": 72.2}

Attention now shifts to the item below.
stdin: Form field: reported cAMP Emax (1.0% HSA) of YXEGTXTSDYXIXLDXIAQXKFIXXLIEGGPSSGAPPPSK (Y-Aib-EGT-αMeF(2F)-TSDY-Aib-I-αMeL-LD-Orn-IAQ-Aib-K((2-[2-(2-Amino-ethoxy)-ethoxy]-acetyl)2-(γ-Glu)-(10-(4-carboxyphenoxy)decanoyl))FI-(D-Glu)-αMeY-LIEGGPSSGAPPPSK((2-[2-(2-Amino-ethoxy)-ethoxy]-acetyl)2-(γ-Glu)-(10-(4-carboxyphenoxy)decanoyl))-NH2) [Example 241]
stdout: 84.9
